Tested on: Staphylococcus aureus
methodNotes: Antibacterial activity against methicillin-susceptible Staphylococcus aureus ATCC 25923 assessed as inhibition of bacterial growth incubated for 18 hrs by broth microdilution method
Format: functional
quantityName: MIC (µg/mL)

compound: O=C(Nc1cccc(Cl)c1)NC1CCN(CCC(Oc2ccccc2)c2ccccc2)CC1 (racemic)
studyTarget: Staphylococcus aureus
quantityName: MIC
relationSign: =
reportedResult: 6.25

compound: O=C(Nc1cccc(Cl)c1)N[C@H]1CCN(CCC(Oc2ccc(Cl)cc2)c2ccccc2)C1 (some centres not stated)
studyTarget: Staphylococcus aureus
quantityName: MIC
relationSign: =
reportedResult: 6.25

compound: COc1ccc(OC(CCN2CCC(NC(=O)Nc3cccc(Cl)c3)CC2)c2ccccc2)cc1 (racemic)
studyTarget: Staphylococcus aureus
quantityName: MIC
relationSign: =
reportedResult: 12.5

compound: O=C(Nc1cccc(Cl)c1)NC1CCN(CCC(Oc2cccc(F)c2)c2ccccc2)CC1 (racemic)
studyTarget: Staphylococcus aureus
quantityName: MIC
relationSign: =
reportedResult: 6.25

compound: O=C(Nc1cccc(Cl)c1)N[C@H]1CCN(CCC(Oc2cccc(Cl)c2)c2ccccc2)C1 (some centres not stated)
studyTarget: Staphylococcus aureus
quantityName: MIC
relationSign: =
reportedResult: 3.12

compound: O=C(Nc1cccc(Cl)c1)NC1CCN(CCC(Oc2ccccc2Cl)c2ccccc2)CC1 (racemic)
studyTarget: Staphylococcus aureus
quantityName: MIC
relationSign: =
reportedResult: 6.25

compound: O=C(Nc1cccc(F)c1)NC1CCN(CCC(Oc2ccc(C(F)(F)F)cc2)c2ccccc2)CC1 (configuration not stated)
studyTarget: Staphylococcus aureus
quantityName: MIC
relationSign: =
reportedResult: 6.25

compound: O=C(Nc1ccccc1)NC1CCN(CCC(Oc2ccc(C(F)(F)F)cc2)c2ccccc2)CC1 (racemic)
studyTarget: Staphylococcus aureus
quantityName: MIC
relationSign: >
reportedResult: 12.5

compound: O=C(NCC1CCN(CCC(Oc2cccc(Cl)c2)c2ccccc2)CC1)Nc1cccc(Cl)c1 (racemic)
studyTarget: Staphylococcus aureus
quantityName: MIC
relationSign: =
reportedResult: 6.25

compound: O=C(Nc1cccc(Cl)c1)N[C@@H]1CCN(CCC(Oc2ccc(C(F)(F)F)cc2)c2ccccc2)C1 (some centres not stated)
studyTarget: Staphylococcus aureus
quantityName: MIC
relationSign: =
reportedResult: 3.12

compound: O=C(Nc1cccc(Cl)c1)N1CCN(CCC(Oc2ccc(C(F)(F)F)cc2)c2ccccc2)CC1 (racemic)
studyTarget: Staphylococcus aureus
quantityName: MIC
relationSign: >
reportedResult: 12.5

compound: O=C(Nc1cccc(Cl)c1)N[C@H]1CCN(CCC(Oc2ccc(C(F)(F)F)cc2)c2ccccc2)C1 (some centres not stated)
studyTarget: Staphylococcus aureus
quantityName: MIC
relationSign: =
reportedResult: 3.12

compound: O=C(Nc1ccc(Cl)cc1)NC1CCN(CCC(Oc2ccc(C(F)(F)F)cc2)c2ccccc2)CC1 (racemic)
studyTarget: Staphylococcus aureus
quantityName: MIC
relationSign: >
reportedResult: 12.5

compound: COc1ccccc1OC(CCN1CCC(NC(=O)Nc2cccc(Cl)c2)CC1)c1ccccc1 (configuration not stated)
studyTarget: Staphylococcus aureus
quantityName: MIC
relationSign: >
reportedResult: 12.5

compound: O=C(NCC1CCN(CCC(Oc2ccc(C(F)(F)F)cc2)c2ccccc2)CC1)Nc1cccc(Cl)c1 (racemic)
studyTarget: Staphylococcus aureus
quantityName: MIC
relationSign: =
reportedResult: 3.12

compound: O=C(O)c1cn(C2CC2)c2cc(N3CCNCC3)c(F)cc2c1=O [CIPROFLOXACIN]
studyTarget: Staphylococcus aureus
quantityName: MIC
relationSign: =
reportedResult: 0.78

compound: O=C(NCC1CCN(CCC(Oc2ccc(Cl)cc2)c2ccccc2)CC1)Nc1cccc(Cl)c1 (racemic)
studyTarget: Staphylococcus aureus
quantityName: MIC
relationSign: =
reportedResult: 6.25
